B1: ADAMTS4 (parent)
chain: SFRKFRYGYNNVVTIPAGATHILV

Variants of: B1
test: protein stability index of a GFP-peptide fusion (GPS, HEK-293T) (PSI 1-6); higher = more stable;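 further: lentivirally expressed fusions sorted by FACS into six bins by GFP to DsRed ratio, PSI derived from sequencing read proportions per bin multiplied by bin number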
condition.set: c terminus: a fixed tail appended
I'd be grateful if you could share measured protein stability index for these entries.
Numbers only.

Solved entries:
mutant_code=F2E endpoint_result=1.79
mutant_code=R6L endpoint_result=3.25
mutant_code=I15G endpoint_result=1.4
mutant_code=A19Q endpoint_result=1.88

I need protein stability index for every entry listed below, if you could help.
1. Y7W
2. I15V
3. Y7H
4. G18D
5. K4C
6. K4A
7. V13M
8. L23G

Response given:
1. 2
2. 1.5
3. 1.77
4. 2.71
5. 2.55
6. 3.08
7. 1.9
8. 2.1
